The reported numbers originate from patent US12577217B2.

pIC50 reference
EXPERIMENTAL_TARGET: recombinant human 15-PGDH (Homo sapiens)
Construct: purchased R&D Systems
METHOD_NOTES: 15-PGDH enzyme inhibition test
Type: biochemical
CONDITION_PARAMETERS: 4 nM recombinant human 15-PGDH, 30 μM PGE2, 1 mM NAD+, 60 minutes after starting the reaction; read-out: IC50 Value
Method: 15-PGDH Enzyme Inhibition Test A test compound and 4 nM recombinant human 15-PGDH (R&D Systems) were added, in 50 mM Tris-HCl (pH 8.0) containing 0.01% TWEEN 20 (Sigma) and 0.01% bovine gamma globulin (Sigma), to a 384-well Flat Bottom Black plate (Corning, 3820), and the resultant was allowed to stand still at room temperature for 12 minutes, and 30 μM PGE2 (Cayman Chemical) and 1 mM NAD+ (Sigma) were added thereto to start the reaction. […]
pIC50: −log10 of the molar value.

COMPOUND | pIC50
COCCOCCn1nc2cc(N3CCCc4cc(C(=O)N5CCC(F)(F)CC5)cnc43)ccn2c1=O [Example 1-80] | > 8.00
Cn1nnnc1-c1ccc(N2CCOc3cc(C(=O)N4CCCCC4)cnc32)cc1 [Example 1-251] | > 8.00
CN1Cc2cc(N3CCOc4cc(SC5CCCCC5)cnc43)ccc2C1=O [Example 1-136] | 7.00 to 8.00
Cn1nc2cc(N3CCCCc4cc(C(=O)N5CCCCC5)cnc43)ccn2c1=O [Example 1-107] | > 8.00

###

EXPERIMENTAL_TARGET: recombinant human 15-PGDH (Homo sapiens)
Construct: purchased R&D Systems
METHOD_NOTES: 15-PGDH enzyme inhibition test
Format: biochemical
CONDITION_PARAMETERS: 4 nM recombinant human 15-PGDH, 30 μM PGE2, 1 mM NAD+, 60 minutes after starting the reaction; read-out: IC50 Value
IC50 reference

COMPOUND | IC50
Cn1nc2cc(N3CCOc4cc(C(=O)N5CCC[C@H](CF)C5)cnc43)ccn2c1=O | < 10 nM
CCOC(=O)c1ccc(N2CCOc3cc(C(=O)N4CCCCC4)cnc32)s1 | < 10 nM
O=C(O)C1CCC(N2CCOc3cc(C(=O)N4CCCCC4)ccc32)CC1 (stereo not shown) [Example 4-13] | 10 to 100 nM
Cn1cnc2cc(N3CCOc4cc(C(=O)N5CCCCC5)cnc43)cnc2c1=O | < 10 nM

###

EXPERIMENTAL_TARGET: recombinant human 15-PGDH (Homo sapiens, UniProt P15428)
Construct: purchased R&D Systems
Sequence (P15428 whole entry): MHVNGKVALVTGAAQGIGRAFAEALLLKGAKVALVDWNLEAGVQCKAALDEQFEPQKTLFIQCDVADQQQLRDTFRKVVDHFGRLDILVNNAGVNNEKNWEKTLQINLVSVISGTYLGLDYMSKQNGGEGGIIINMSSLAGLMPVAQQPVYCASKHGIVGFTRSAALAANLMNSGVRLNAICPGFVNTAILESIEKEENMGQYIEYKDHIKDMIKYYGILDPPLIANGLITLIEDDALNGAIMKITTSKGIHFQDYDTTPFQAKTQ
METHOD_NOTES: 15-PGDH enzyme inhibition test
Type: biochemical
CONDITION_PARAMETERS: 4 nM recombinant human 15-PGDH, 30 μM PGE2, 1 mM NAD+, 60 minutes after starting the reaction; read-out: IC50 Value
pIC50: −log10 of the molar value.
pIC50 reference
MEASURED_PROPERTY: pIC50

COMPOUND | MEASURED_PROPERTY | TEST_VALUE
Cn1nc2cc(N3CCOc4cc(C(=O)N5C[C@H]6C[C@@H](C5)C6)cnc43)ccn2c1=O | pIC50 | > 8.00
COC(=O)c1ccccc1N1CCc2cc(C(=O)N3CCCCC3)ccc21 | pIC50 | < 7.00
CCCN1Cc2cc(N3CCCc4cc(C(=O)N5CCCCC5)cnc43)ccc2C1=O | pIC50 | > 8.00
CN(C)C(=O)Cn1nc2cc(N3CCOc4cc(C(=O)N5CCCCC5)cnc43)ccn2c1=O | pIC50 | > 8.00
Cn1ccc2cc(N3CCOc4cc(C(=O)N5CCCCC5)cnc43)ccc2c1=O | pIC50 | > 8.00
NC(=O)c1ccc(N2CCOc3cc(C(=O)N4CCCCC4)cnc32)cn1 | pIC50 | > 8.00
CCN1Cc2cc(N3CCCc4cc(C(=O)N5CCCC(F)(F)C5)cnc43)ccc2C1=O | pIC50 | > 8.00
O=C(O)C1CCC(N2CCOc3cc(C(=O)N4CCCCC4)ccc32)CC1 (centres unmarked) [Example 4-14] | pIC50 | > 8.00
Cn1nc2cc(N3CCOc4cc(C(=O)N5CCCC(F)(F)C5)cnc43)ccn2c1=O | pIC50 | > 8.00
COC(=O)c1cc2ccc(N3CCOc4cc(C(=O)N5CCCCC5)cnc43)cc2n1C | pIC50 | > 8.00
O=C(c1ccc2c(c1)OCCN2c1ccc2c(=O)[nH]cnc2c1)N1CCC(F)(F)CC1 | pIC50 | > 8.00
Cn1nc2cc(N3CCOc4cc(C(=O)N5CCCC6(CCO6)C5)cnc43)ccn2c1=O (centres unmarked) | pIC50 | 7.00 to 8.00
CCN(CC(C)O)C(=O)c1cnc2c(c1)OCCN2c1ccn2c(=O)n(C)nc2c1 (centres unmarked) | pIC50 | 7.00 to 8.00
CNC(=O)c1ccc(N2CCOc3cc(C(=O)N4CCCCC4)cnc32)cc1F | pIC50 | > 8.00
O=C(O)c1ccc(N2CCCS(=O)(=O)c3cc(C(=O)N4CCCCC4)ccc32)cc1 | pIC50 | < 7.00
CN1C(=O)c2cc(N3CCOc4cc(C(=O)N5CCCCC5)cnc43)ccc2S1(=O)=O | pIC50 | 7.00 to 8.00
Cn1ncc2cc(N3CCCc4cc(C(=O)N5CCC(F)(F)CC5)cnc43)ccc2c1=O | pIC50 | > 8.00
